Recorded values, source ChEMBL document CHEMBL1649583.

- assay.text: Apparent oral clearance in human adults with pulmonary tuberculosis at 600 mg administered daily for 7 days
- Assay type: ADME, organism-based
- condition.description: in vivo
assay.metric: CL/F (mL/min)

> print(dat)
                                   molecule  assay.metric  recorded.result
1  CC(=O)NC[C@H]1CN(c2ccc(N3CCOCC3)c(F)c2)C(=O)O1 [LINEZOLID]          CL/F              118

---

- assay.text: Cmax in human adults with pulmonary tuberculosis at 600 mg administered daily for 7 days
- Format: ADME, organism-based
- Parameters: dose 600 mg
- condition.description: in vivo
assay.metric: Cmax (µg/mL)

> print(dat)
                                   molecule  unit.info  recorded.result
1  CC(=O)NC[C@H]1CN(c2ccc(N3CCOCC3)c(F)c2)C(=O)O1 [LINEZOLID]      µg/mL             14.9

---

- assay.text: Elimination rate constant in human adults with pulmonary tuberculosis at 600 mg administered twice daily for 7 days
- Assay type: ADME, organism-based
- condition.description: in vivo
assay.metric: k el at 168 h (s⁻¹)

> print(dat)
                              record.smiles   assay.metric  recorded.result
1  CC(=O)NC[C@H]1CN(c2ccc(N3CCOCC3)c(F)c2)C(=O)O1  k el at 168 h         5.56e-05
